These data points were gathered from PubChem BioAssay (NCI).

Experiment: NCI Yeast Anticancer Drug Screen. Data for the rad50 strain (AID 155);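 further: 0% = growth of vehicle-only cultures of the same strain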
Conditions: S. cerevisiae rad50 strain growth inhibition; at 5.0 µM (retest, dose inferred, filed as 0.5); stronger effect = higher value
Method: Growth inhibition of yeast strains with defined genetic alterations is measured as a screen for potential anti-cancer activity. Selected strains with alterations in DNA damage repair or cell cycle control were exposed to compounds and growth inhibition was measured relative to vehicle treated controls. The strain used in this assay is rad50
Compounds without any hit were thinned out: in the full panel of roughly 79,000, 15% have a hit.

molecule: CN(C)CC/[N+]([O-])=C(/c1ccccc1)C12CC3CC(CC(C3)C1)C2
unitString: %
growth inhibition: -6

molecule: CC(=O)/C(=C\c1ccc(N(C)C)cc1)C(C)=[N+](C)C(=O)c1c(/[N+](C)=C(C)\C(=C\c2ccc(N(C)C)cc2)C(C)=O)ncn1C
unitString: %
growth inhibition: 31

molecule: CCOC(=O)Nc1cc2c(c(N)n1)N=C(c1ccccc1)CN2
unitString: %
growth inhibition: 6

molecule: CC(=O)Oc1ccc(C23CC4CC(CC(C4)C2)C3)cc1
unitString: %
growth inhibition: -2

molecule: CC(=Nc1ccc(S(=O)(=O)c2ccc(N=C(C)N3CCCCC3)cc2)cc1)N1CCCCC1
unitString: %
growth inhibition: 0

molecule: O=C1CC2Sc3ccccc3N=C2N1c1ccc(Cl)cc1Cl (stereo unspecified)
unitString: %
growth inhibition: 36

molecule: Cc1ccc(SC2=C(N(C)C)C(=O)c3ccccc3C2=O)cc1
unitString: %
growth inhibition: 3

molecule: C[C@H]1CC[C@@H]2[C@@H](C)[C@H]3[C@H](C[C@H]4[C@@H]5CC=C6C[C@@H](O)CC[C@]6(C)[C@H]5C[C@H](O)[C@]34C)N2C1
unitString: %
growth inhibition: -6

molecule: CN(C)N=Nc1ccc(NC(N)=O)cc1
unitString: %
growth inhibition: 33

molecule: COC1OC2=CCC3C(=O)NC(=O)C3C2[C@H](OCc2ccccc2)C1OCc1ccccc1 (stereo partly specified)
unitString: %
growth inhibition: 11

molecule: CCN(CC)P(=S)(c1ccccc1CCP(=S)(c1ccccc1)c1ccccc1)N(CC)CC
unitString: %
growth inhibition: -6

molecule: CSc1ccc(/C=C2\CNC/C(=C\c3ccc(SC)cc3)C2=O)cc1
unitString: %
growth inhibition: 12

molecule: Cn1c(=O)ccc2cc(C(=O)c3ccccc3)ccc21
unitString: %
growth inhibition: 7

molecule: O=C1c2ccccc2C(=O)c2c(OCCOCCO)cccc21
unitString: %
growth inhibition: 6

molecule: O=C1Oc2ccccc2C(=O)/C1=C/N1C(=O)/C(=C/c2ccc3c(c2)OCO3)SC1=S
unitString: %
growth inhibition: 7

molecule: O=C1C=CCCCC1(c1ccccc1)c1ccccc1
unitString: %
growth inhibition: 2

====

experiment: NCI Yeast Anticancer Drug Screen. Data for the bub3 strain (AID 167); conditions: S. cerevisiae bub3 mutant strain, at 50.0 µM (retest, dose inferred, filed as 5.0)
Compounds without any hit were thinned out: in the full panel of roughly 79,000, 15% have a hit. Activity calls are given as the source filed them. Rule as the data show it: active = growth inhibition above about 70%; inactive = the rest.
Possible outcomes: active, inactive

compound: CC1(C)N=C(N)N=C(N)N1c1cccc(OCc2cccc(N)c2)c1
discreteLabel: inactive
//
compound: CCCC(C)(O)C(C)CC (stereo not drawn)
discreteLabel: inactive
//
compound: O=C(O)c1ccc(CSc2ccc(Cl)cc2)cc1
discreteLabel: inactive
//
compound: Cn1cnc([N+](=O)[O-])c1S
discreteLabel: inactive
//
compound: COc1cc(CC(=O)O)c(Cc2ccc3c(c2)Cc2ccccc2-3)cc1OC
discreteLabel: active
//
compound: N#CC12CCCC(=O)N1c1ccccc1S2 (stereo not drawn)
discreteLabel: inactive
//
compound: CC(CO)(CO)N=Cc1cc(I)cc(I)c1O
discreteLabel: active
//
compound: O=C(O)C1C(Br)(c2ccccc2)C1(Br)c1ccccc1 (stereo not drawn)
discreteLabel: inactive
//
compound: COC1/C=C\OC2(C)Oc3c(C)c(O)c4c(c3C2=O)C(=O)C=C(NC(=O)C(C)=C/C=C\C(C)C(O)C(C)C2OC(C)(C)OC(C1C)C2C)C4=O (stereo not drawn)
discreteLabel: active
//
compound: Cc1ccc(OC/C=C/c2cccc(C#N)c2)cc1
discreteLabel: inactive
//
compound: COC1OC(=O)CC1C1CC=C2C3CCC4CC(O)CCC4(C)C3CCC21C (stereo not drawn)
discreteLabel: active
//
compound: C/C(=N\NC(=S)N1CC(C)OC(C)C1)c1ncccn1 (stereo not drawn)
discreteLabel: active
//
compound: C=CCOC(=O)CC(OC(C)=O)C(CC)CC(C)C (stereo not drawn)
discreteLabel: inactive
//
compound: CC1C(=O)C(Br)CC2C1(C)CCC1C2(C)CCC2(C)C3CC(C)(C)CCC3(C)CCC12C (stereo not drawn)
discreteLabel: inactive
//
compound: CCCCCCCCCSC(=S)N(C)NC(=O)c1ccccn1
discreteLabel: active
//
compound: COC(=O)NNc1c([N+](=O)[O-])cnn(-c2ccccc2)c1=O
discreteLabel: inactive
//
compound: CCOC(=O)C(NC(=O)c1ccccc1)[CH](c1ccc(OC)cc1)[Sn]([c]1ccccc1)([c]1ccccc1)[c]1ccccc1 (stereo not drawn)
discreteLabel: active
//
compound: CC(=O)OC(OC(C)=O)c1ccc([N+](=O)[O-])o1
discreteLabel: inactive
//
compound: CC12CCC(O)CC1=CCC1C2CCC2(C)c3nc(C#N)c(=N)n(O)c3CC12 (stereo not drawn)
discreteLabel: active
//
compound: CC(=O)c1c(-c2ccco2)c(C#N)c(=S)n(C2OC(CO)C(O)C(O)C2O)c1-c1ccccc1 (stereo not drawn)
discreteLabel: inactive
//
compound: CCCCCCCCCCCCCCCC1(OC)C[N+](C)(C)CCO1 (stereo not drawn)
discreteLabel: active
//
compound: O=C(c1ccccc1)N(C(=S)N(C(=O)c1ccccc1)c1ccccc1)c1ccccc1
discreteLabel: inactive
//
compound: Cn1cnc(=S)c2[nH]cnc21
discreteLabel: inactive
//
compound: O=C1C(=O)c2cc(Cl)ccc2-c2ccc(Cl)cc21
discreteLabel: active
//
compound: O=C(Nc1ccccc1)ON=C1CCCCC1
discreteLabel: inactive
//
compound: Cc1ccc(COCO)c(O)c1
discreteLabel: inactive
//
compound: Nc1ccc(S(=O)(=O)N2CCCc3ccccc32)cc1
discreteLabel: inactive
//
compound: NCC(O)CSc1ccc(Cl)c(Cl)c1 (stereo not drawn)
discreteLabel: inactive
//
compound: O=C(Cc1c[nH]c2ccccc12)N/N=C/c1ccc(Cl)cc1[N+](=O)[O-]
discreteLabel: active
//
compound: CC(=O)OCC1OC(n2cnc3c(Cl)nc(Cl)nc32)C(OC(C)=O)C1OC(C)=O (stereo not drawn)
discreteLabel: inactive
//
compound: Nc1ccc(S(=O)(=O)Nc2cc(Cl)cc(Cl)c2)cc1
discreteLabel: active
//
compound: NNc1cc(C(F)(F)F)nc2ccccc12
discreteLabel: inactive
//
compound: CC(=Nc1ccc(S(=O)(=O)c2ccc(N=C(C)N3CCCCC3)cc2)cc1)N1CCCCC1
discreteLabel: inactive

====

assay: NCI Yeast Anticancer Drug Screen. Data for the bub3 strain (AID 167); conditions: S. cerevisiae bub3 mutant strain, at 5.0 µM (retest, dose inferred, filed as 0.5), stronger effect = higher value
About 79,000 compounds went through this panel and 15% of them were active in at least one assay; those are over-represented in the sample as a whole.
Below, each of the compounds is paired with its reported growth inhibition value.

compound: C=C1CC2(CC(C(C)C)CCC2C)OC1=O (stereo not drawn)
growth inhibition (%): 42

compound: O=C(O)CCC(=O)NCCNC(=O)CC(=O)O
growth inhibition (%): -68

compound: CC(C)(C)c1cc(C(c2cc3c(cc2O)OCO3)N2CCOCC2)cc(C(C)(C)C)c1O (stereo not drawn)
growth inhibition (%): 68

compound: O=C1c2ccccc2SCC12OC2c1ccc(Cl)cc1 (stereo not drawn)
growth inhibition (%): 21

compound: COc1ccccc1/C=N/Nc1nnc(N/N=C/c2ccccc2OC)c2ccccc12
growth inhibition (%): -5

compound: CC1=C(C)C(=O)C2=C(OCCCO2)C1=O
growth inhibition (%): -13

compound: N=C(N)Cc1ccc(NC(=O)c2ccc(C(=O)Nc3ccc(CC(=N)N)cc3)cc2)cc1
growth inhibition (%): -3

compound: C=C(CN(C)C)C(=O)c1ccc(C)cc1C
growth inhibition (%): 77

compound: CC/C=C\C/C=C\C/C=C\CCCCCCCC(=O)OCC(O)CO (stereo not drawn)
growth inhibition (%): -2

compound: Cc1ccc(-c2ccccc2)n1-c1cc(Cl)ccc1O
growth inhibition (%): 0

compound: COc1ccc(C2C(C#N)(C#N)C2(C#N)C#N)cc1
growth inhibition (%): 6

compound: O=Nc1c(O)c2ccccc2c2ccc([N+](=O)[O-])cc12
growth inhibition (%): 20

compound: O=C1c2ccccc2C(=O)C2(C(c3ccccc3)c3ccccc3)N=NCC12 (stereo not drawn)
growth inhibition (%): 27

compound: CC(=O)/C(=C\c1cccc(Cl)c1)C(=O)CCN(C)C
growth inhibition (%): 13

compound: CCC[CH2][Sn]([CH2]CCC)([O]N(C)C(=O)c1ccc(Br)cc1)[O]N(C)C(=O)c1ccc(Br)cc1
growth inhibition (%): 37

compound: O=[N+]([O-])c1ccc(N=C(Cl)C(Cl)(c2ccccc2)c2ccccc2)cc1
growth inhibition (%): 8

compound: Cc1cc2c(cc1S(=O)(=O)O)C1C(C3C2C2(Cl)C(Cl)=C(Cl)C3(Cl)C2(Cl)Cl)C2(Cl)C(Cl)=C(Cl)C1(Cl)C2(Cl)Cl (stereo not drawn)
growth inhibition (%): -15

compound: CS(=O)(=O)OCCN(CCOS(C)(=O)=O)c1ccc(C=Nc2cc(Br)c(O)c(Br)c2)c(Cl)c1
growth inhibition (%): -3

compound: O=C(O)Cc1c[nH]c2ccccc12
growth inhibition (%): 85

compound: O=[N+]([O-])c1cccc(S(=O)(=O)Nc2cccc3ccccc23)c1
growth inhibition (%): 1

compound: Cc1cc([N+](=O)[O-])cc(C)[n+]1[O-]
growth inhibition (%): 0

compound: CCCC/C(=C\c1cc(Cl)c(O)c(Cl)c1)C(=O)O
growth inhibition (%): 1

compound: O=C(/C=N/O)Nc1ccc(Cl)c(I)c1
growth inhibition (%): -9

compound: CSc1cc(N)nc(N)n1
growth inhibition (%): 1

compound: [Cl][Ge]([c]1ccccc1)[c]1ccccc1.[Cl][Ge]([c]1ccccc1)[c]1ccccc1
growth inhibition (%): 16

compound: O=Cc1ccc2c(c1)CC1(C2)Cc2ccc3c(c2C1)CCC3 (stereo not drawn)
growth inhibition (%): -1

compound: Cc1nc2ccc(NCCN(C)C)c3c(=O)c4cc(O)ccc4n1c23
growth inhibition (%): 13

compound: CCCCCCCCCCCCCCCCCCOC(=O)C(N)Cc1ccccc1 (stereo not drawn)
growth inhibition (%): -2
